- experimental-protocol: in vitro
- details: non-human primate, microsomes
value-kind: microsomal CLint (µL/min/mg)
Report only the number, with the unit µL/min/mg understood.

For record COc1ccc2nc3cc(Cl)ccc3c(Nc3cc(CN4CCCC4)c(O)c(CN4CCCC4)c3)c2n1 the listed microsomal CLint is 4.9

###

- target-desc: CYP1A2 (Homo sapiens)
- Sequence (P05177 whole entry): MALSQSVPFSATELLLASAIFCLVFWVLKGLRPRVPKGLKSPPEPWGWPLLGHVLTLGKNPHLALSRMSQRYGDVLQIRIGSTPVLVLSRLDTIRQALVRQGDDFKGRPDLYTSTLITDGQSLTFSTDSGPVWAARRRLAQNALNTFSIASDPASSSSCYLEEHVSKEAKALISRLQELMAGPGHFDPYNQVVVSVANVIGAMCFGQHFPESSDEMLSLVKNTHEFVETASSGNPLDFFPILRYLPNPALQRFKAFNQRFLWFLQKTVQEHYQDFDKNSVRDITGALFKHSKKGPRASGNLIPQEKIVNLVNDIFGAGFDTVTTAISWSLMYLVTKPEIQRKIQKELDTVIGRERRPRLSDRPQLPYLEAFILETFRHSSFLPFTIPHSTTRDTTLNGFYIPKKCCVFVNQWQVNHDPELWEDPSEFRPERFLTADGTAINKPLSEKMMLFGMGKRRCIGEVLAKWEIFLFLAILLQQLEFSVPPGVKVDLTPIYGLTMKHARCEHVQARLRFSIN
pIC50: −log10 of the molar value.
value-kind: pIC50

Observed pIC50 on CYP1A2 (Homo sapiens), entry COc1ccc2nc3cc(Cl)ccc3c(Nc3cc(CN4CCCC4)c(O)c(CN4CCCC4)c3)c2n1 [Pyronaridine] , equals < 4.30

###

- experimental-protocol: in vivo
- details: male, BALB/c, mouse, ip, 25 mg/kg
value-kind: AUC(0-t) (ng·h/mL)
Write it as a number; the unit ng·h/mL goes unstated.

Query COc1ccc2nc3cc(Cl)ccc3c(Nc3cc(CN4CCCC4)c(O)c(CN4CCCC4)c3)c2n1 [Pyronaridine] yields AUC(0-t) of 713
